- SUBJECT OF TEST: ΔF508-CFTR (Homo sapiens, UniProt P13569, DEL508-508)
- Construct: host or cells: CFBE41o-, doxycycline-inducible
- Sequence (P13569 with tags, fused parts or gaps DEL508-508): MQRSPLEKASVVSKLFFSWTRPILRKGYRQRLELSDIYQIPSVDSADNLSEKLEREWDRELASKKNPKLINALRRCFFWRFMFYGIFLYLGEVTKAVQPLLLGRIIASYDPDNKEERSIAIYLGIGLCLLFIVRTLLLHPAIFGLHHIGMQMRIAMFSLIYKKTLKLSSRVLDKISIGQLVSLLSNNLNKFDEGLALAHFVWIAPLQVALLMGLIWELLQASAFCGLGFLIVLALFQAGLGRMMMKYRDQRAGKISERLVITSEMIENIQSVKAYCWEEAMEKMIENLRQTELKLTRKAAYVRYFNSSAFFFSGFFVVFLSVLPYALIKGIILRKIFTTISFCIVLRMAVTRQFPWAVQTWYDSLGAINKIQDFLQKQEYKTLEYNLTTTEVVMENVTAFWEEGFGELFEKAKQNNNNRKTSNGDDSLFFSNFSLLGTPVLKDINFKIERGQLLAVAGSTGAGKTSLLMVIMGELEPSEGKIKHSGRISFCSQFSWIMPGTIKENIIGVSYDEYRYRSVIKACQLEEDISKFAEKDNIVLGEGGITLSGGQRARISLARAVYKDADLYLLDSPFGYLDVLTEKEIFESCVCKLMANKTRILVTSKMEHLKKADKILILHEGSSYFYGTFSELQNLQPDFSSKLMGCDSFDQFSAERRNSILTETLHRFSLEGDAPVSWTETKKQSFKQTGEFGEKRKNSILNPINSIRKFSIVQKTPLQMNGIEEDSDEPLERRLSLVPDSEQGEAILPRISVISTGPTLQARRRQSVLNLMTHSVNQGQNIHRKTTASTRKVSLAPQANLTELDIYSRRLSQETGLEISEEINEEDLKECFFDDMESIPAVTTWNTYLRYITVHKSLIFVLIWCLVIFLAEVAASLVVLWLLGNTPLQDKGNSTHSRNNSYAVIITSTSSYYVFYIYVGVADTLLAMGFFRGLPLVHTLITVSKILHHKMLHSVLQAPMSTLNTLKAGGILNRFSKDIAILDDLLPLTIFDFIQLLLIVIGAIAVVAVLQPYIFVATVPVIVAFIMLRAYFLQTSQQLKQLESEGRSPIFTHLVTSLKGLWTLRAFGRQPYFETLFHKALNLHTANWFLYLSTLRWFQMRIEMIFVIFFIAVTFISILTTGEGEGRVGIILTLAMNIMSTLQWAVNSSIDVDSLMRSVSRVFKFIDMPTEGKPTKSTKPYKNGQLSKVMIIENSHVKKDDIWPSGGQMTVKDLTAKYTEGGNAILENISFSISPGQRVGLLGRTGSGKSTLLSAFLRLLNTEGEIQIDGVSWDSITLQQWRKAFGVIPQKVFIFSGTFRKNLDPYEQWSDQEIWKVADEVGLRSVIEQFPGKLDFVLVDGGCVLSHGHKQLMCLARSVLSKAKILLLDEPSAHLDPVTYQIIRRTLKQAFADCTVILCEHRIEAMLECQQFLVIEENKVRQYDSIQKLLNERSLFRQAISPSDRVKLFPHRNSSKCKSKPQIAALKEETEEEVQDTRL
- PROTOCOL DETAILS: CFTR cell surface levels using HRP-tagged ΔF508-CFTR expressing CFBE cells, intrinsic corrector capacity
- Assay type: cell-based
- Set-up: concentration or dose not given beside the values
- APPLIED CONDITIONS: HRP-tagged ΔF508-CFTR expressing CFBE41o- cells; compound alone (intrinsic corrector capacity); 20 hours at 33° C.
PARAMETER: % Activation (%)
Give the value, in units of %, as a plain number.

>  <COMPOUND>
CCS(=O)(=O)NC(=O)c1cc(-c2ccc(N(C)C3CCOCC3)nc2)c2c(C(C)C)nn(C3CCCCC3)c2n1 [Compound 90]

>  <SUBJECT OF TEST>
ΔF508-CFTR (Homo sapiens, UniProt P13569, DEL508-508)

>  <PARAMETER>
% Activation

>  <MEASUREMENT UNIT>
%

>  <REPORTED>
163.75

$$$$
>  <COMPOUND>
CCS(=O)(=O)NC(=O)c1cc(-c2cnc(N(C)C)nc2)c2c(C(C)C)nn(-c3cccc(N(C)C)c3)c2n1 [Compound 78]

>  <SUBJECT OF TEST>
ΔF508-CFTR (Homo sapiens, UniProt P13569, DEL508-508)

>  <PARAMETER>
% Activation

>  <MEASUREMENT UNIT>
%

>  <REPORTED>
333.2

$$$$
>  <COMPOUND>
CN(C)S(=O)(=O)NC(=O)c1cc(N2CCC3(CC2)CC(N2CCOCC2)CO3)c2c(C3CCC3)nn(-c3ccc(F)cc3)c2n1 (stereo not shown) [Compound 533]

>  <SUBJECT OF TEST>
ΔF508-CFTR (Homo sapiens, UniProt P13569, DEL508-508)

>  <PARAMETER>
% Activation

>  <MEASUREMENT UNIT>
%

>  <REPORTED>
156.3

$$$$

Lab note: next compound to report on.
Req: Please look up its % Activation: CCOC(=O)N1CCC(NS(=O)(=O)NC(=O)c2cc(N3CCC(N4CCOCC4)CC3)c3c(C4CCC4)nn(-c4ccccc4)c3n2)CC1 [Compound 433]
Resp: 361.5

Ref: patent US10259810B2
